System: Escherichia coli
Test: minimum inhibitory concentration (MIC)
Conditions: isolate (source animal id): 163
Assign minimum inhibitory concentration to each entry below.

Task: For the record COc1cc(NS(=O)(=O)c2ccc(N)cc2)nc(OC)n1 , what value of minimum inhibitory concentration is listed for Escherichia coli?
Result: > 256 µg/mL

Task: For the record CC[C@H]1OC(=O)C[C@@H](O)[C@H](C)[C@@H](O[C@@H]2O[C@H](C)[C@@H](O)[C@H](N(C)C)[C@H]2O)[C@@H](CCN2C[C@H](C)C[C@H](C)C2)C[C@@H](C)C(=O)/C=C/C(C)=C/[C@@H]1CO[C@@H]1O[C@H](C)[C@@H](O)[C@@H](OC)[C@H]1OC , what value of minimum inhibitory concentration is listed for Escherichia coli?
Result: > 16 µg/mL

Task: For the record COc1cc(Cc2cnc(N)nc2N)cc(OC)c1OC.Cc1cc(NS(=O)(=O)c2ccc(N)cc2)no1 , what value of minimum inhibitory concentration is listed for Escherichia coli?
Result: ≤ 2 µg/mL

Task: For the record CC1(C)S[C@@H]2[C@H](NC(=O)Cc3ccccc3)C(=O)N2[C@H]1C(=O)O , what value of minimum inhibitory concentration is listed for Escherichia coli?
Result: > 8 µg/mL

Task: For the record CNC(C)C1CCC(N)C(OC2C(N)CC(N)C(OC3OCC(C)(O)C(NC)C3O)C2O)O1 (stereo not given) , what value of minimum inhibitory concentration is listed for Escherichia coli?
Result: ≤ 1 µg/mL

* * *

Test system: Pasteurella multocida
Assay: minimum inhibitory concentration (MIC)
Details: isolate (source animal id): 262
MEASURED_ATTRIBUTE: minimum inhibitory concentration

Task: For the record NC[C@@H]1O[C@H](O[C@H]2[C@@H](O)[C@H](O[C@@H]3[C@@H](O)[C@H](N)C[C@H](N)[C@H]3O[C@H]3O[C@H](CN)[C@@H](O)[C@H](O)[C@H]3N)O[C@@H]2CO)[C@H](N)[C@@H](O)[C@@H]1O [Neomycin] , what value of minimum inhibitory concentration is listed for Pasteurella multocida?
Result: > 32 µg/mL

Task: For the record CC1(C)S[C@@H]2[C@H](NC(=O)Cc3ccccc3)C(=O)N2[C@H]1C(=O)O [Penicillin] , what value of minimum inhibitory concentration is listed for Pasteurella multocida?
Result: ≤ 0.12 µg/mL

Task: For the record CC1(C)S[C@@H]2[C@H](NC(=O)[C@H](N)c3ccccc3)C(=O)N2[C@H]1C(=O)O [Ampicillin] , what value of minimum inhibitory concentration is listed for Pasteurella multocida?
Result: ≤ 0.25 µg/mL

Task: For the record CN1C[C@@H]2C[C@H]1CN2c1cc2c(cc1F)c(=O)c(C(=O)O)cn2C1CC1 [Danofloxacin] , what value of minimum inhibitory concentration is listed for Pasteurella multocida?
Result: > 1 µg/mL

Task: For the record CN[C@@H]1[C@H](O)[C@H](NC)[C@H]2O[C@@]3(O)C(=O)C[C@@H](C)O[C@H]3O[C@@H]2[C@H]1O [Spectinomycin] , what value of minimum inhibitory concentration is listed for Pasteurella multocida?
Result: 32 µg/mL

Task: For the record CCC[C@@H]1C[C@@H](C(=O)N[C@@H]([C@H]2O[C@H](SC)[C@H](O)[C@@H](O)[C@H]2O)[C@H](C)Cl)N(C)C1 [Clindamycin] , what value of minimum inhibitory concentration is listed for Pasteurella multocida?
Result: > 16 µg/mL
